Biological target: T1, BMPRII receptor-Fc fusion (UniProt Q13873 27-151, limits assumed)
T1 construct: BMP receptor-Fc fusion used at 5 ug/mL
T1 sequence (looked up): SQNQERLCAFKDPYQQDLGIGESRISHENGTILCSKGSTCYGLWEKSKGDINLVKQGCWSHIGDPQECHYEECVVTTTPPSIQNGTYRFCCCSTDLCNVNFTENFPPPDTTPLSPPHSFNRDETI
Assay: ELISA-like plate assay, captured BMP-7 from conditioned media, receptor-Fc detection
reported.property: BMPRII binding (relative to wild type = 1.0)

# binder, experimental.result
measured = [
    ("BMP-7 variant N76A (ligand, In conditioned media; numbering on mature BMP-7) STGGKQRSQNRSKTPKNQEALRMASVAENSSSDQRQACKKHELYVSFRDLGWQDWIIAPEGYAAYYCEGECAFPLASYMNATNHAIVQTLVHFINPETVPKPCCAPTQLNAISVLYFDDSSNVILKKYRNMVVRACGCH", "0.95 relative to wild type"),
]

# input for lookup
Entry BMP-7 variant L21R (ligand, In conditioned media; numbering on mature BMP-7) STGGKQRSQNRSKTPKNQEARRMASVAENSSSDQRQACKKHELYVSFRDLGWQDWIIAPEGYAAYYCEGECAFPLNSYMNATNHAIVQTLVHFINPETVPKPCCAPTQLNAISVLYFDDSSNVILKKYRNMVVRACGCH ; BMPRII binding (relative to wild type = 1.0) = 0.66 relative to wild type
